target: T1, biotinylated goat anti-human kappa light chain; experiment: ELISA; positive control; note: test concentration or dose not given here
T1 construct: Positive control of the ELISA
Readout Type: optical density (OD)
Write the number in OD without appending the unit.

Reference set, count: 3
366_H05 (antibody, V domains shown, VH/VL only) VH: EVQLLESGGGLVQPGGSLRLSCAASGFTFDSYGMHWVRQAPGKGLEWVASINYNGGYTSYADSVKGRFTISRDNSKNTLYLQMNSLRAEDTAVYYCARSATWHDTHLDYWGQGTLVTVSS VL: DIQMTQSPSSLSASVGDRVTITCRASQSILSYVNWYQQKPGKAPKLLIYAATSLASGVPSRFSGSGSGTDFTLTISSLQPEDFATYYCQQSYDLPLTFGGGTKVEIK | 3.47
368_E11 (antibody, V domains shown, VH/VL only) VH: EVQLLESGGGLVQPGGSLRLSCAASGFTFDSYGMHWVRQAPGKGLEWVANINYNGGYTSYADSVKGRFTISRDNSKNTLYLQMNSLRAEDTAVYYCARSATWHDTHLDYWGQGTLVTVSS VL: DIQMTQSPSSLSASVGDRVTITCRASQSIISYVNWYQQKPGKAPKLLIYAATSRHSGVPSRFSGSGSGTDFTLTISSLQPEDFATYYCQQSYELPLTFGGGTKVEIK | 3.73
369_A05 (antibody, V domains shown, VH/VL only) VH: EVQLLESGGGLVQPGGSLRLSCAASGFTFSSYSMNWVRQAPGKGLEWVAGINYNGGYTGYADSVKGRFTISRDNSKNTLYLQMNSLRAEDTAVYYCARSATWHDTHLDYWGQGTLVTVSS VL: DIQMTQSPSSLSASVGDRVTITCRASQSILTYVNWYQQKPGKAPKLVIYAATSRASGVPSRFSGSGSGTDFTLTISSLQPEDFATYYCQQSYESPLTFGGGTKVEIK | 3.48

Indicate the recorded optical density value for this binder: 375_A06 (antibody, V domains shown, VH/VL only) VH: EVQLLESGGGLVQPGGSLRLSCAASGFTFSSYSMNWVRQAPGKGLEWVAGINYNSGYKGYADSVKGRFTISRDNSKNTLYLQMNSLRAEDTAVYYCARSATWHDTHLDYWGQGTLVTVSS VL: DIQMTQSPSSLSASVGDRVTITCRASQSILTYVNWYQQKPGKAPKLLIYAASSLQSGVPSRFSGSGSGTDFTLTISSLQPEDFATYYCQQSYSTPLTFGGGTKVEIK 3.11

Indicate the recorded optical density value for this binder: 375_C06 (antibody, V domains shown, VH/VL only) VH: EVQLLESGGGLVQPGGSLRLSCAASGFTFDDYGMHWVRQAPGKGLEWVASINYNSGYTSYADSVKGRFTISRDNSKNTLYLQMNSLRAEDTAVYYCARSANWHDTALDYWGQGTLVTVSS VL: DIQMTQSPSSLSASVGDRVTITCRASQSILTYVNWYQQKPGKAPKLVIYATTSRASGVPSRFSGSGSGTDFTLTISSLQPEDFATYYCQQSYDSPLTFGGGTKVEIK 3.29
